# maps each entry to its Microsomal Stability Human
Assay: Microsomal stability, human
Type: in vitro ADME
Conditions: clearance in microsomes
Protocol: The kinetics of compound degradation in liver microsomes is assessed in an assay with 1 µmol/l of compound and 0.5 mg/ml liver microsomes in a medium of 100 mM Tris-HCl pH 7.5, 6.5 mM MgCl2 and 1 mM NADPH at 37 °C. The reaction is stopped at multiple time points by adding acetonitrile. After centrifugation, the compound concentration is measured in the supernatants by high-performance liquid chromatography (HPLC) tandem mass spectrometry (MS/MS). […]
*1 amine or outer side, *2 acyl side, *3 side chain or, on linkers, in order; H or OH if unused. Where a SMILES comes first, the peptide text is derived from it. [ ]: non-standard residue; d: D form. X3 = C#CCOc1ccc([C@@H](OC)[C@H](N[*:1])C(=O)[*:2])cc1; NMeLeu(5-OH,4R) = CN[C@@H](C[C@@H](C)CO)C(=O)O; Trp(1-Me) = Cn1cc(C[C@H](N)C(=O)O)c2ccccc21; NMeL = CN[C@@H](CC(C)C)C(=O)O

In the examples that follow, each entry is paired with its recorded Microsomal Stability Human.
Molecule	Microsomal Stability Human
CO[C@H](c1ccccc1)[C@@H]1NC(=O)[C@H](C)NC(=O)[C@H](C[C@@H](C)CO)N(C)C(=O)[C@H](Cc2cn(Cc3cn(CCCCCn4cc(Cn5cc(C[C@@H]6NC(=O)[C@H](C(C)C)NC(=O)[C@H](CC(C)C)N(C)C(=O)[C@H](C(C)C)NC(=O)[C@H]([C@H](OC)c7ccccc7)NC(=O)[C@H](C)NC(=O)[C@H](C[C@@H](C)CO)N(C)C6=O)c6ccccc65)nn4)nn3)c3ccccc23)NC(=O)[C@H](C(C)C)NC(=O)[C@H](CC(C)C)N(C)C(=O)[C@H](C(C)C)NC1=O [Compound 9]	43 %Qh
CCCCCn1cc(C[C@@H]2NC(=O)[C@H](CC(C)C)N(C)C(=O)[C@H](C(C)C)NC(=O)[C@H]([C@H](OC)c3ccccc3)NC(=O)[C@H](C)NC(=O)[C@H](C[C@@H](C)CO)N(C)C(=O)[C@H](Cc3cn(C)c4ccccc34)N(C)C2=O)nn1 [Compound 25]	> 88 %Qh
CO[C@H](c1ccccc1)[C@@H]1NC(=O)[C@H](C)NC(=O)[C@H](C[C@@H](C)CO)N(C)C(=O)[C@H](Cc2cn(Cc3cn(CCOCCOCCOCCOCCn4cc(Cn5cc(C[C@H]6C(=O)N(C)[C@@H](C[C@@H](C)CO)C(=O)N[C@@H](C)C(=O)N[C@@H]([C@H](OC)c7ccccc7)C(=O)N[C@@H](C(C)C)C(=O)N(C)[C@@H](CC(C)C)C(=O)N[C@@H](C(C)C)C(=O)N6C)c6ccccc65)nn4)nn3)c3ccccc23)N(C)C(=O)[C@H](C(C)C)NC(=O)[C@H](CC(C)C)N(C)C(=O)[C@H](C(C)C)NC1=O [Compound 27]	> 88 %Qh
C#CCOc1ccc([C@@H](OC)[C@@H]2NC(=O)[C@H](C)NC(=O)[C@H](C[C@@H](C)CO)N(C)C(=O)[C@H](Cc3cn(C)c4ccccc34)NC(=O)[C@H](C(C)C)NC(=O)[C@H](CC(C)C)N(C)C(=O)[C@H](C(C)C)NC2=O)cc1 [SI-38] (cyclo(A[X3]V[NMeL]V[Trp(1-Me)][NMeLeu(5-OH,4R)]))	84 %Qh

Return Microsomal Stability Human (reported value) for this molecule: COC(c1ccccc1)C1NC(=O)C(C)NC(=O)C(CC(C)CO)N(C)C(=O)C(Cc2cn(Cc3cn(CCOCCOCCOCCOCCn4cc(Cn5cc(CC6NC(=O)C(C(C)C)NC(=O)C(CC(C)C)N(C)C(=O)C(C(C)C)NC(=O)C(C(OC)c7ccccc7)NC(=O)C(C)NC(=O)C(CC(C)CO)N(C)C6=O)c6ccccc65)nn4)nn3)c3ccccc23)NC(=O)C(C(C)C)NC(=O)C(CC(C)C)N(C)C(=O)C(C(C)C)NC1=O (centres unmarked) [Compound 8]
> 88 %Qh
